Reference for the values: paper PMC6749236

- Test system: Escherichia coli MG1655 (pRecA-lux)
- assay_remarks: Genotoxicity, bacterial lux-biosensor
- Type: cell-based
- condition_context: without metabolic activation (-S9); 10^−7 M
Label True when Genotoxicity (induction factor, I) is at or above 2; otherwise label False.

>>> assigned_class("O=C(Nc1ccccc1)N1CCCC1c1ccc(Nc2c([N+](=O)[O-])c(Cl)cc3c2no[n+]3[O-])cc1O (centres unmarked)")
"True"
>>> assigned_class("O=C(Nc1ccc(Br)cc1)N1CCCC1c1ccc(Nc2c([N+](=O)[O-])c(Cl)cc3c2no[n+]3[O-])cc1O (centres unmarked)")
"False"
>>> assigned_class("COc1ccc(NC(=O)N2CCCC2c2ccc(Nc3c([N+](=O)[O-])c(Cl)cc4c3no[n+]4[O-])cc2O)cc1 (centres unmarked)")
"True"

Req: Is reported Genotoxicity (induction factor, I) greater than or equal to 2 here: O=C(Nc1ccc(F)cc1)N1CCCC1c1ccc(Nc2c([N+](=O)[O-])c(Cl)cc3c2no[n+]3[O-])cc1O (centres unmarked)
Resp: True

Req: Is reported Genotoxicity (induction factor, I) greater than or equal to 2 here: "O=[N+]([O-])c1c(Cl)cc2c(no[n+]2[O-])c1Nc1cccc(O)c1"
Resp: False
